The listing below reports AC50 for molecules tested on Cholecystokinin receptor type A (Homo sapiens). Note: assay procedure not described here.
Sequence (P32238 whole entry): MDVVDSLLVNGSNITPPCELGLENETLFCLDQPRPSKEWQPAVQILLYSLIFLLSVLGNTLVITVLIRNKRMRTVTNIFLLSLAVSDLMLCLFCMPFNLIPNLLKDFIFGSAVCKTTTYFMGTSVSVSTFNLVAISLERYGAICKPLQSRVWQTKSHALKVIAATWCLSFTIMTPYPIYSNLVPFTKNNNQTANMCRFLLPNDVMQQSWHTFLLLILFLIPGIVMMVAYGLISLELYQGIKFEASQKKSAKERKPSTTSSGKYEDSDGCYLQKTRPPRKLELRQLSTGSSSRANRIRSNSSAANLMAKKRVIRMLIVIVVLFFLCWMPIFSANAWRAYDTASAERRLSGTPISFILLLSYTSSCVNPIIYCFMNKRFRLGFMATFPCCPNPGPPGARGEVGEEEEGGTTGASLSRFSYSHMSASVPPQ

Reported AC50 of "Nc1ccn([C@H]2CC[C@@H](CO)O2)c(=O)n1" : > 10 µM

Reported AC50 of "c1ccc([C@H]2CN3CCSC3=N2)cc1" : > 30 µM

Reported AC50 of "CN(C)CCc1c[nH]c2ccc(C[C@H]3COC(=O)N3)cc12" : > 30 µM

Reported AC50 of "Nc1nc(/C(=C/CC(=O)O)C(=O)N[C@@H]2C(=O)N3C(C(=O)O)=CCS[C@H]23)cs1" : > 30 µM

Reported AC50 of O=C(OCC(O)CO)c1ccccc1Nc1ccnc2cc(Cl)ccc12 (stereo not drawn) : > 30 µM

Reported AC50 of "NCC[C@H](O)C(=O)N[C@@H]1C[C@H](N)[C@@H](O[C@H]2O[C@H](CN)[C@@H](O)[C@H](O)[C@H]2O)[C@H](O)[C@H]1O[C@H]1O[C@H](CO)[C@@H](O)[C@H](N)[C@H]1O" : > 10 µM

Reported AC50 of "O=C(O)C[C@H](O)C[C@H](O)/C=C/c1c(C2CC2)nc2ccccc2c1-c1ccc(F)cc1" : > 10 µM

Reported AC50 of Clc1ccc(C(c2ccccc2Cl)C(Cl)Cl)cc1 (stereo not drawn) : > 10 µM

---

The listing below reports AC50 for molecules tested on Type-1 angiotensin II receptor (Homo sapiens, UniProt P30556). Note: assay procedure not described here.
Sequence (P30556 whole entry): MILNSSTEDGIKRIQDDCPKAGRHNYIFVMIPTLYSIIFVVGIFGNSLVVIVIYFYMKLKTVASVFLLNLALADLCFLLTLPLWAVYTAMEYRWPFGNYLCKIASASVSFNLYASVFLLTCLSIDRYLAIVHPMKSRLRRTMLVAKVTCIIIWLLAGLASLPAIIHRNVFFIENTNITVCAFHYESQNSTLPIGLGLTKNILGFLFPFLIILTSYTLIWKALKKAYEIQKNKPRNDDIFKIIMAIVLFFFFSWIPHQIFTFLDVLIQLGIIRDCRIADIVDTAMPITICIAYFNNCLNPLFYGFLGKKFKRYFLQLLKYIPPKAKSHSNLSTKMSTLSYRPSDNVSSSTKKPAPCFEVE

Reported AC50 of C=CCN1CCCC1CNC(=O)c1cc(S(N)(=O)=O)cc(OC)c1OC (centres undefined) [VERALIPRIDE] : > 30 µM

Reported AC50 of "Cn1c(=O)c2c(ncn2CC2OCCO2)n(C)c1=O" : > 30 µM

Reported AC50 of "N#Cc1ccc([C@H]2CCc3cncn32)c(F)c1" : > 10 µM

Reported AC50 of O=C(O)[C@H](CC(=O)N1C[C@H]2CCCC[C@H]2C1)Cc1ccccc1 [MITIGLINIDE] : > 10 µM

Reported AC50 of "C[C@@H](O)[C@H]1C(=O)N2C(C(=O)O)=C(S[C@@H]3CN[C@H](C(=O)N(C)C)C3)[C@H](C)[C@H]12" : > 300 µM

Reported AC50 of O=C(NCCNCC(O)COc1ccc(O)cc1)N1CCOCC1 (centres undefined) : > 30 µM

Reported AC50 of CC(Oc1c(Cl)cccc1Cl)C1=NCCN1 (centres undefined) : > 30 µM

Reported AC50 of "CC(C)Cn1cnc2c(N)nc3ccccc3c21" : > 10 µM

Reported AC50 of "CN1CCC(=C2c3ccccc3CCc3sccc32)CC1" : > 30 µM

Reported AC50 of "CCOc1ccc(Cc2cc([C@@H]3O[C@H](CO)[C@@H](O)[C@H](O)[C@H]3O)ccc2Cl)cc1" : > 30 µM

Reported AC50 of "Nc1ccn([C@H]2CC[C@@H](CO)O2)c(=O)n1" : > 10 µM

Reported AC50 of "O=C(O)CCCCCCCC(=O)O" : > 10 µM

Reported AC50 of "O=[N+]([O-])c1cn2c(n1)OC[C@@H](OCc1ccc(OC(F)(F)F)cc1)C2" : > 30 µM

Reported AC50 of NC(=O)CN1CC(O)CC1=O (centres undefined) : > 30 µM

Reported AC50 of C1CCC(C(CC2CCCCN2)C2CCCCC2)CC1 (centres undefined) : > 30 µM

Reported AC50 of COc1ccc(C(=O)Nc2ccccc2CCC2CCCCN2C)cc1 (centres undefined) [ENCAINIDE] : > 30 µM

Reported AC50 of CCCN(CCC)C(=O)C(CCC(=O)O)NC(=O)c1ccccc1 (centres undefined) [PROGLUMIDE] : > 30 µM

Reported AC50 of "CN(C)CCc1c[nH]c2ccc(C[C@H]3COC(=O)N3)cc12" : > 30 µM

Reported AC50 of COC(=O)C1=C(C)NC(C)=C(C(=O)OC(C)(C)CN(C)CCC(c2ccccc2)c2ccccc2)C1c1cccc([N+](=O)[O-])c1 (centres undefined) : > 30 µM

---

- TESTED_ON: Alpha-1A adrenergic receptor (Homo sapiens)
- Sequence (P35348 whole entry): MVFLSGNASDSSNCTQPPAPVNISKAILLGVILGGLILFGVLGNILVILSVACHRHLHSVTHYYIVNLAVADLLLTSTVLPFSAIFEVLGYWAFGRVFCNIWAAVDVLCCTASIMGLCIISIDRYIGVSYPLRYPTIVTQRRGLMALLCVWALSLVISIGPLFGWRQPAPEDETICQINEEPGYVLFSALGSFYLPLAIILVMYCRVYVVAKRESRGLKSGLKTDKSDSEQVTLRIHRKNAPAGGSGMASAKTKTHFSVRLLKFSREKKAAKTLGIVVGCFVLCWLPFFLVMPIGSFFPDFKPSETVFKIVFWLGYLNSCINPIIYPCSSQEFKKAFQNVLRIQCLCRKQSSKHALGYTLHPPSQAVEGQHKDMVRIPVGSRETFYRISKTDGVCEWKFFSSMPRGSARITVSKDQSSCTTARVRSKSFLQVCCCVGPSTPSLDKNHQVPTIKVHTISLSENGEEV
- Type: functional, cell-based
EXPERIMENTAL_ENDPOINT: AC50

Reported AC50 of N[C@@H](C(=O)N[C@@H]1C(=O)N2C(C(=O)O)=C(Cl)CC[C@H]12)c1ccccc1 [LORACARBEF ANHYDROUS] : > 30 µM

Reported AC50 of "OB1OCc2cc(F)ccc21" : > 30 µM

Reported AC50 of "OCCN1C[C@H](O)[C@@H](O)[C@H](O)[C@H]1CO" : > 30 µM

Reported AC50 of "Cc1cc(C#N)cc(C)c1Oc1nc(Nc2ccc(C#N)cc2)nc(N)c1Br" : > 3 µM

Reported AC50 of CCC(C)(C)c1ccc(CC(C)CN2C[C@@H](C)O[C@@H](C)C2)cc1 (stereo partly specified) : > 30 µM

Reported AC50 of O=C(OCC(O)CO)c1ccccc1Nc1ccnc2cc(Cl)ccc12 (stereo unspecified) : 13.5 µM

Reported AC50 of "C[C@]12CC[C@@H]3c4ccc(O)cc4CC[C@H]3[C@@H]1C[C@@H](O)[C@@H]2O" : > 30 µM

Reported AC50 of "COc1cc2c3cc1Oc1cc(ccc1O)C[C@@H]1c4c(cc(OC)c(O)c4Oc4ccc(cc4)C[C@@H]3N(C)CC2)CC[N+]1(C)C" : > 30 µM

Reported AC50 of "Oc1ccccc1" : > 30 µM

Reported AC50 of CCCC1O[C@@H]2C[C@H]3[C@@H]4CCC5=CC(=O)C=C[C@]5(C)[C@H]4[C@@H](O)C[C@]3(C)[C@]2(C(=O)CO)O1 (stereo partly specified) [BUDESONIDE] : > 30 µM

Reported AC50 of "Nc1nc2nc[nH]c2c(=S)[nH]1" : > 30 µM

Reported AC50 of "CN(C)CCn1nnnc1SCC1=C(C(=O)O)N2C(=O)[C@@H](NC(=O)Cc3csc(N)n3)[C@H]2SC1" : > 30 µM

Reported AC50 of "O=C(O)c1cc(O)ccc1O" : > 30 µM

Reported AC50 of CC1(C)NC(=O)N(c2ccc([N+](=O)[O-])c(C(F)(F)F)c2)C1=O [NILUTAMIDE] : > 3 µM

Reported AC50 of "CC(=O)Nc1ccc(O)cc1" : > 30 µM

Reported AC50 of "C[N+](C)(C)CCO" : > 30 µM

Reported AC50 of "CCN(CC)CCNc1ccc(CO)c2sc3ccccc3c(=O)c12" : 1.4 µM

Reported AC50 of "OC(CCN1CCCCC1)(c1ccccc1)c1ccccc1" : > 30 µM

Reported AC50 of "CC(C)Nc1ncccn1" : > 30 µM

Reported AC50 of "N=C1CCCN1Cc1[nH]c(=O)[nH]c(=O)c1Cl" : > 30 µM

Reported AC50 of "CCCCOC(=O)C(=O)[C@H]1[C@H](C)C[C@H]2[C@@H]3C[C@H](F)C4=CC(=O)C=C[C@]4(C)[C@H]3[C@@H](O)C[C@@]21C" : 13.1 µM

Reported AC50 of CC(=O)Oc1ccc2c(c1)CC[C@@H]1[C@@H]2CC[C@]2(C)[C@@H](O)CC[C@@H]12 [ESTRADIOL ACETATE] : 15 µM

Reported AC50 of "COC1=C(OC)C(=O)C(C/C=C(\C)CC/C=C(\C)CC/C=C(\C)CC/C=C(\C)CC/C=C(\C)CC/C=C(\C)CC/C=C(\C)CC/C=C(\C)CC/C=C(\C)CCC=C(C)C)=C(C)C1=O" : > 30 µM

Reported AC50 of "CC[C@H]1OC(=O)[C@H](C)[C@@H](O[C@H]2C[C@@](C)(OC)[C@@H](O)[C@H](C)O2)[C@H](C)[C@@H](O[C@@H]2O[C@H](C)C[C@H](N(C)C)[C@H]2O)[C@](C)(O)C[C@@H](C)CN(C)[C@H](C)[C@@H](O)[C@]1(C)O" : > 30 µM

Reported AC50 of "Nc1ccc(S(=O)(=O)c2cnc(N)s2)cc1" : > 30 µM

Reported AC50 of "O=c1[nH]c(=O)n([C@H]2C[C@H](O)[C@@H](CO)O2)cc1F" : > 30 µM

Reported AC50 of Cc1ccccc1OCC(O)CO (stereo unspecified) : > 30 µM

Reported AC50 of "NC(=O)C[C@H](N)C(=O)O" : > 30 µM

Reported AC50 of CCOc1ccccc1C(N)=O [ETHENZAMIDE] : > 30 µM

Reported AC50 of "Clc1cc(Cl)c(OCC#CI)cc1Cl" : > 30 µM

Reported AC50 of O=C(CCNNC(=O)c1ccncc1)NCc1ccccc1 [NIALAMIDE] : > 30 µM

Reported AC50 of COCCCN1CCC(NC(=O)c2cc(Cl)c(N)c3c2OCC3)CC1 [PRUCALOPRIDE] : > 30 µM

Reported AC50 of CCOc1ccccc1OCC1CNCCO1 (stereo unspecified) : > 30 µM

Reported AC50 of "C[N+]1(CCCCC[N+]2(C)CCCC2)CCCC1" : > 30 µM

Reported AC50 of CCN(CC)CCOC(=O)C(c1ccccc1)C1CCCCC1 (stereo unspecified) : 9.55 µM

Reported AC50 of "CN1CCN(C2=Nc3ccccc3Sc3ccc(Cl)cc32)CC1" : 0.01 µM
